The measured values listed here are drawn from patent US20250361298A1.

target_desc: cp1342
test_method_notes: BLI
pKd: −log10 of the molar value.

>  <binder>
cp203 (Fc fusion, biotinylated for BLI capture (site not stated)) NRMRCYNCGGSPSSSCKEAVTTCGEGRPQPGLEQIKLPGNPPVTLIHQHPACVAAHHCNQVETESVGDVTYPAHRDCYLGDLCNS

>  <pKd>
8.76

$$$$
